This section lists pIC50 readings for MMP-2CD (gelatinase A catalytic domain) (Homo sapiens, UniProt P08253).
pIC50: −log10 of the molar value.
endpoint-name: pIC50

O=C(NO)C1(NS(=O)(=O)c2ccc3c(c2)oc2ccccc23)CCCCC1 [Example 28]	8.77

[1] O=C(O)C1(NS(=O)(=O)c2ccc3c(c2)oc2ccccc23)CCCCC1 [Example 27]
[2] CC(C)(NS(=O)(=O)c1ccc2c(c1)oc1ccccc12)C(=O)NO [Example 30]
[3] O=C(NO)C1(NS(=O)(=O)c2ccc3oc4cc(Br)ccc4c3c2)CCCC1 [Example 32]
Put the items in order so that reported pIC50 rises from first to last. Sort the labels as requested; that list is your answer.
3, 2, 1

Where do these numbers come from? They come from patent US6677355B1.
